# Lookup of reported pIC50 keyed by entry
- target-system: cdk4/cyclin D1 (Homo sapiens)
- Sequence (P11802 whole entry): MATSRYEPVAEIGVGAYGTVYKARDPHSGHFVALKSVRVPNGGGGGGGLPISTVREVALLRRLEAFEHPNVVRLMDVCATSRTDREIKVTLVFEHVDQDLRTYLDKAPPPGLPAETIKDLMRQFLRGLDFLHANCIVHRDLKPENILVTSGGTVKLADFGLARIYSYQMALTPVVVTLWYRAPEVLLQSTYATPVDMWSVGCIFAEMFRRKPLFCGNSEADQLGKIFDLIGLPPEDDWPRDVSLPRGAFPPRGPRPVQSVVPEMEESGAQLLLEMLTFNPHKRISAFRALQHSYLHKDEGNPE
- Sequence (P24385 whole entry partner): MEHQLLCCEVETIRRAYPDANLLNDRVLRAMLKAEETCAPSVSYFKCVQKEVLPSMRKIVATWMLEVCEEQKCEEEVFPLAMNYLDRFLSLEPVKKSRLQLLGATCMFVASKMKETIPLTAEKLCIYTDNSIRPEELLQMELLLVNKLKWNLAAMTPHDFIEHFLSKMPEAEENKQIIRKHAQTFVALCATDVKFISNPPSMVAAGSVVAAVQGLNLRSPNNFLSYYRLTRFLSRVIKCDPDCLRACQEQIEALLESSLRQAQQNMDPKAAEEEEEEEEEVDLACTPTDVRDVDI
- measurement-protocol: Cyclin-dependent kinase assay, cdk4/cyclin D1
- Assay type: biochemical
- measurement-parameters: cyclin D1/cdk4; GST-pRb substrate, 10 µM ATP
Counter-ions that a name gives are not always drawn.
By convention, pIC50 is the negative base-10 log of a molar concentration.

[[record]]
compound = "N[C@H]1CC[C@H](Nc2nc(NC3CCN(C(=O)Nc4cc(C(F)(F)F)ccc4Cl)CC3)c3ncn(C4CCCC4)c3n2)CC1 [compound 177, dihydrochloride]"
quantity_kind = "pIC50"
observed_measurement = 6.36


Query string: Using known records, supply pIC50 for N[C@H]1CC[C@H](Nc2nc(NC3CCN(C(=O)c4ccc(F)cc4)CC3)c3ncn(C4CCCC4)c3n2)CC1 [compound 1, dihydrochloride]
Result string: 6.26

Query string: Using known records, supply pIC50 for N[C@H]1CC[C@H](Nc2nc(NC3CCN(C(=O)Nc4ccccc4C(F)(F)F)CC3)c3ncn(C4CCCC4)c3n2)CC1 [compound 158, dihydrochloride]
Result string: 6.08
